Values were extracted from paper doi:10.1101/2024.03.05.583629.

Consider the following sequences; for each one, report its binding signal.
# targetOrTestSystem: pT7_6His-AlfaTag-ZIF268 (human, UniProt P18146 335-423)
# experimentalDetails: PADIT-seq
# experimentalConditions: dsDNA, one strand shown

Task: Any idea what its binding signal is? The sequence is CTCGAGGATATCAAGATCTGGCCTCGGCGTTTTAACAGGAACCTCTAGCTAGCCGACTCACTATAGGGATAATCGCCCTGAGCAAAGACC
Result: 0.0535 log2FC

Task: Any idea what its binding signal is? The sequence is CTCGAGGATATCAAGATCTGGCCTCGGCACGCTAAAAGGAACCTCTAGCTAGCCGACTCACTATAGGGATAATCGCCCTGAGCAAAGACC
Result: 0.0119 log2FC

Task: Any idea what its binding signal is? The sequence is CTCGAGGATATCAAGATCTGGCCTCGGCATTTTAGGGGGAACCTCTAGCTAGCCGACTCACTATAGGGATAATCGCCCTGAGCAAAGACC
Result: 0.0683 log2FC

Task: Any idea what its binding signal is? The sequence is CTCGAGGATATCAAGATCTGGCCTCGGCGCGGAGGCGGGAACCTCTAGCTAGCCGACTCACTATAGGGATAATCGCCCTGAGCAAAGACC
Result: 1.88 log2FC

Task: Any idea what its binding signal is? The sequence is CTCGAGGATATCAAGATCTGGCCTCGGCACATGGGCGGGAACCTCTAGCTAGCCGACTCACTATAGGGATAATCGCCCTGAGCAAAGACC
Result: 0.18 log2FC

Task: Any idea what its binding signal is? The sequence is CTCGAGGATATCAAGATCTGGCCTCGGCGCGAAGGCGGGAACCTCTAGCTAGCCGACTCACTATAGGGATAATCGCCCTGAGCAAAGACC
Result: 0.278 log2FC

Task: Any idea what its binding signal is? The sequence is CTCGAGGATATCAAGATCTGGCCTCGGCGCCCCACGCGGAACCTCTAGCTAGCCGACTCACTATAGGGATAATCGCCCTGAGCAAAGACC
Result: 0.0171 log2FC

Task: Any idea what its binding signal is? The sequence is CTCGAGGATATCAAGATCTGGCCTCGGCGCGTGGAATGGAACCTCTAGCTAGCCGACTCACTATAGGGATAATCGCCCTGAGCAAAGACC
Result: 0.0778 log2FC

Task: Any idea what its binding signal is? The sequence is CTCGAGGATATCAAGATCTGGCCTCGGCGCGCGTGCGGGAACCTCTAGCTAGCCGACTCACTATAGGGATAATCGCCCTGAGCAAAGACC
Result: 0.0362 log2FC

Task: Any idea what its binding signal is? The sequence is CTCGAGGATATCAAGATCTGGCCTCGGCATTTTAAGAGGAACCTCTAGCTAGCCGACTCACTATAGGGATAATCGCCCTGAGCAAAGACC
Result: 0.0486 log2FC

Task: Any idea what its binding signal is? The sequence is CTCGAGGATATCAAGATCTGGCCTCGGCAGGATAAAAGGAACCTCTAGCTAGCCGACTCACTATAGGGATAATCGCCCTGAGCAAAGACC
Result: 0.0545 log2FC

Task: Any idea what its binding signal is? The sequence is CTCGAGGATATCAAGATCTGGCCTCGGCCGCCCAATGGGAACCTCTAGCTAGCCGACTCACTATAGGGATAATCGCCCTGAGCAAAGACC
Result: 0.0226 log2FC

Task: Any idea what its binding signal is? The sequence is CTCGAGGATATCAAGATCTGGCCTCGGCTCACTAAAAGGAACCTCTAGCTAGCCGACTCACTATAGGGATAATCGCCCTGAGCAAAGACC
Result: 0.00307 log2FC

Task: Any idea what its binding signal is? The sequence is CTCGAGGATATCAAGATCTGGCCTCGGCGCGTGGGCTGGAACCTCTAGCTAGCCGACTCACTATAGGGATAATCGCCCTGAGCAAAGACC
Result: 2.62 log2FC

----------
# targetOrTestSystem: pT7_6His-AlfaTag-HOXD13 (human, UniProt P35453 263-343)
# Sequence (P35453 263-343): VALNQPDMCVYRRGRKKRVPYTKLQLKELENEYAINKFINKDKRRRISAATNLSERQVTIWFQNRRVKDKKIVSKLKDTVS
# experimentalDetails: PADIT-seq
# experimentalConditions: dsDNA, one strand shown
Field: label. Allowed values: yes (1) (binding signal < 1 log2FC) or no (0) (binding signal >= 1 log2FC).

Task: Consider CTCGAGGATATCAAGATCTGGCCTCGGCTTTCCACGCGGAACCTCTAGCTAGCCGACTCACTATAGGGATAATCGCCCTGAGCAAAGACC . Does its binding signal lie strictly below 1 log2FC?
Result: yes (1)

Task: Consider CTCGAGGATATCAAGATCTGGCCTCGGCTGTGTAAAAGGAACCTCTAGCTAGCCGACTCACTATAGGGATAATCGCCCTGAGCAAAGACC . Does its binding signal lie strictly below 1 log2FC?
Result: no (0)

Task: Consider CTCGAGGATATCAAGATCTGGCCTCGGCGACCTAAAAGGAACCTCTAGCTAGCCGACTCACTATAGGGATAATCGCCCTGAGCAAAGACC . Does its binding signal lie strictly below 1 log2FC?
Result: yes (1)

Task: Consider CTCGAGGATATCAAGATCTGGCCTCGGCTTTTTATGCGGAACCTCTAGCTAGCCGACTCACTATAGGGATAATCGCCCTGAGCAAAGACC . Does its binding signal lie strictly below 1 log2FC?
Result: no (0)

Task: Consider CTCGAGGATATCAAGATCTGGCCTCGGCCGCCTAAAAGGAACCTCTAGCTAGCCGACTCACTATAGGGATAATCGCCCTGAGCAAAGACC . Does its binding signal lie strictly below 1 log2FC?
Result: yes (1)

Task: Consider CTCGAGGATATCAAGATCTGGCCTCGGCACTATAAAAGGAACCTCTAGCTAGCCGACTCACTATAGGGATAATCGCCCTGAGCAAAGACC . Does its binding signal lie strictly below 1 log2FC?
Result: no (0)

Task: Consider CTCGAGGATATCAAGATCTGGCCTCGGCATTTTACCGGGAACCTCTAGCTAGCCGACTCACTATAGGGATAATCGCCCTGAGCAAAGACC . Does its binding signal lie strictly below 1 log2FC?
Result: no (0)

Task: Consider CTCGAGGATATCAAGATCTGGCCTCGGCTAAATAAAAGGAACCTCTAGCTAGCCGACTCACTATAGGGATAATCGCCCTGAGCAAAGACC . Does its binding signal lie strictly below 1 log2FC?
Result: no (0)

Task: Consider CTCGAGGATATCAAGATCTGGCCTCGGCATTTTACACGGAACCTCTAGCTAGCCGACTCACTATAGGGATAATCGCCCTGAGCAAAGACC . Does its binding signal lie strictly below 1 log2FC?
Result: no (0)

Task: Consider CTCGAGGATATCAAGATCTGGCCTCGGCGGAGTAAAAGGAACCTCTAGCTAGCCGACTCACTATAGGGATAATCGCCCTGAGCAAAGACC . Does its binding signal lie strictly below 1 log2FC?
Result: yes (1)

Task: Consider CTCGAGGATATCAAGATCTGGCCTCGGCACATTAAAAGGAACCTCTAGCTAGCCGACTCACTATAGGGATAATCGCCCTGAGCAAAGACC . Does its binding signal lie strictly below 1 log2FC?
Result: no (0)

Task: Consider CTCGAGGATATCAAGATCTGGCCTCGGCGTTTTAGAGGGAACCTCTAGCTAGCCGACTCACTATAGGGATAATCGCCCTGAGCAAAGACC . Does its binding signal lie strictly below 1 log2FC?
Result: no (0)

Task: Consider CTCGAGGATATCAAGATCTGGCCTCGGCGTTTTAGACGGAACCTCTAGCTAGCCGACTCACTATAGGGATAATCGCCCTGAGCAAAGACC . Does its binding signal lie strictly below 1 log2FC?
Result: yes (1)

Task: Consider CTCGAGGATATCAAGATCTGGCCTCGGCGTTTTACAGGGAACCTCTAGCTAGCCGACTCACTATAGGGATAATCGCCCTGAGCAAAGACC . Does its binding signal lie strictly below 1 log2FC?
Result: no (0)

----------
# targetOrTestSystem: pT7_6His-AlfaTag-ZIF268 (human, UniProt P18146 335-423)
# experimentalDetails: PADIT-seq
# experimentalConditions: dsDNA, one strand shown
Consider the following sequences; for each one, report its binding signal.

Task: Any idea what its binding signal is? The sequence is CTCGAGGATATCAAGATCTGGCCTCGGCAAATGGGCGGGAACCTCTAGCTAGCCGACTCACTATAGGGATAATCGCCCTGAGCAAAGACC
Result: 0.157 log2FC

Task: Any idea what its binding signal is? The sequence is CTCGAGGATATCAAGATCTGGCCTCGGCAGCCCACGCGGAACCTCTAGCTAGCCGACTCACTATAGGGATAATCGCCCTGAGCAAAGACC
Result: 0.806 log2FC

Task: Any idea what its binding signal is? The sequence is CTCGAGGATATCAAGATCTGGCCTCGGCATATGGGCGGGAACCTCTAGCTAGCCGACTCACTATAGGGATAATCGCCCTGAGCAAAGACC
Result: 0.0376 log2FC

Task: Any idea what its binding signal is? The sequence is CTCGAGGATATCAAGATCTGGCCTCGGCGCGTGGGACGGAACCTCTAGCTAGCCGACTCACTATAGGGATAATCGCCCTGAGCAAAGACC
Result: 1.73 log2FC

Task: Any idea what its binding signal is? The sequence is CTCGAGGATATCAAGATCTGGCCTCGGCTGTTGGGCGGGAACCTCTAGCTAGCCGACTCACTATAGGGATAATCGCCCTGAGCAAAGACC
Result: 0.111 log2FC

Task: Any idea what its binding signal is? The sequence is CTCGAGGATATCAAGATCTGGCCTCGGCTAGTGGGCGGGAACCTCTAGCTAGCCGACTCACTATAGGGATAATCGCCCTGAGCAAAGACC
Result: 1.78 log2FC

Task: Any idea what its binding signal is? The sequence is CTCGAGGATATCAAGATCTGGCCTCGGCCGCGACCGCGGAACCTCTAGCTAGCCGACTCACTATAGGGATAATCGCCCTGAGCAAAGACC
Result: 0.0618 log2FC

Task: Any idea what its binding signal is? The sequence is CTCGAGGATATCAAGATCTGGCCTCGGCACCTGGGCGGGAACCTCTAGCTAGCCGACTCACTATAGGGATAATCGCCCTGAGCAAAGACC
Result: 0.068 log2FC

Task: Any idea what its binding signal is? The sequence is CTCGAGGATATCAAGATCTGGCCTCGGCGTGTGGGCGGGAACCTCTAGCTAGCCGACTCACTATAGGGATAATCGCCCTGAGCAAAGACC
Result: 3.29 log2FC

Task: Any idea what its binding signal is? The sequence is CTCGAGGATATCAAGATCTGGCCTCGGCGTTTTAACGGGAACCTCTAGCTAGCCGACTCACTATAGGGATAATCGCCCTGAGCAAAGACC
Result: 0.0881 log2FC

Task: Any idea what its binding signal is? The sequence is CTCGAGGATATCAAGATCTGGCCTCGGCCTTTTATGCGGAACCTCTAGCTAGCCGACTCACTATAGGGATAATCGCCCTGAGCAAAGACC
Result: 0.00428 log2FC

Task: Any idea what its binding signal is? The sequence is CTCGAGGATATCAAGATCTGGCCTCGGCGCGTGGGTAGGAACCTCTAGCTAGCCGACTCACTATAGGGATAATCGCCCTGAGCAAAGACC
Result: 1.97 log2FC

Task: Any idea what its binding signal is? The sequence is CTCGAGGATATCAAGATCTGGCCTCGGCATCTTAAAAGGAACCTCTAGCTAGCCGACTCACTATAGGGATAATCGCCCTGAGCAAAGACC
Result: 0.00209 log2FC

Task: Any idea what its binding signal is? The sequence is CTCGAGGATATCAAGATCTGGCCTCGGCGCGGGCGCGGGAACCTCTAGCTAGCCGACTCACTATAGGGATAATCGCCCTGAGCAAAGACC
Result: 0.156 log2FC
